The measured values listed here are drawn from ChEMBL document CHEMBL1138452.

5-hydroxytryptamine receptor 7 (Homo sapiens, UniProt P34969) data, read-out Ki
Sequence (P34969 whole entry): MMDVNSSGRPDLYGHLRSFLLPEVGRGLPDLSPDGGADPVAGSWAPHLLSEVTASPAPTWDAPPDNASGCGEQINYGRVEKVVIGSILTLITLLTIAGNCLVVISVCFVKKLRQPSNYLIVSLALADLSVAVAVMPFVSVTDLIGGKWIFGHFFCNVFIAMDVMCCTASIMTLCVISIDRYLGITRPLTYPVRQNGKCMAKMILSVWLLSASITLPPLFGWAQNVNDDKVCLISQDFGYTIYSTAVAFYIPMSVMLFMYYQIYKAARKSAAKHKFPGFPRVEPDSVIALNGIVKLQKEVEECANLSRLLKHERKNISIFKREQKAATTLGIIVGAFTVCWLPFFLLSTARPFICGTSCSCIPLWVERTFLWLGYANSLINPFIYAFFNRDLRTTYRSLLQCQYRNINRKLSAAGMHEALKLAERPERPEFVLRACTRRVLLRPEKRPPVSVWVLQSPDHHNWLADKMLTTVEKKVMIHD
quantity.measured: Ki (µM)

• O=C(Nc1ccc2cnn(S(=O)(=O)c3cccc4ccccc34)c2c1)C1CCNCC1 = 6.9
• NCCC(=O)Nc1cccc2c1cnn2S(=O)(=O)c1cccc2ccccc12 = 5.1

----------
target: UniProt:P08913; test: Binding affinity to adrenergic alpha2A receptor
Sequence (P08913 whole entry): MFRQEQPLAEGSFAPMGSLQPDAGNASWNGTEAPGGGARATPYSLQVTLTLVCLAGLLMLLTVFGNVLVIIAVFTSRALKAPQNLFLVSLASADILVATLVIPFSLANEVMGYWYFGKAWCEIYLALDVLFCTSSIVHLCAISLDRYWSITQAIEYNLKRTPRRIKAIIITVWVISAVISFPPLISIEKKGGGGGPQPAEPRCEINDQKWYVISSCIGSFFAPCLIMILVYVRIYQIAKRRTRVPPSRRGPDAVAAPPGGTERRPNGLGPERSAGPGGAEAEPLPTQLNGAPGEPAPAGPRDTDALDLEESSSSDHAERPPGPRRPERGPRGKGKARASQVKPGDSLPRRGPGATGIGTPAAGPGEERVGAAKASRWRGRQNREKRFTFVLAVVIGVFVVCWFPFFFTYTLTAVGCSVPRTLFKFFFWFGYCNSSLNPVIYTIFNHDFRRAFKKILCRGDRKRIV
Catalogue of Ki readings, one per entry.

• O=C(Nc1ccc2cnn(S(=O)(=O)c3cccc4ccccc34)c2c1)C1CCCNC1 (racemic) = > 2 µM

Let's switch to this molecule now.
Exercise: Form field: reported Ki of O=C(Nc1ccc2cnn(S(=O)(=O)c3cccc4ccccc34)c2c1)C1CCNCC1
Solution: > 2 µM

----------
target: 5-hydroxytryptamine receptor 1D (Homo sapiens, UniProt P28221)
Sequence (P28221 whole entry): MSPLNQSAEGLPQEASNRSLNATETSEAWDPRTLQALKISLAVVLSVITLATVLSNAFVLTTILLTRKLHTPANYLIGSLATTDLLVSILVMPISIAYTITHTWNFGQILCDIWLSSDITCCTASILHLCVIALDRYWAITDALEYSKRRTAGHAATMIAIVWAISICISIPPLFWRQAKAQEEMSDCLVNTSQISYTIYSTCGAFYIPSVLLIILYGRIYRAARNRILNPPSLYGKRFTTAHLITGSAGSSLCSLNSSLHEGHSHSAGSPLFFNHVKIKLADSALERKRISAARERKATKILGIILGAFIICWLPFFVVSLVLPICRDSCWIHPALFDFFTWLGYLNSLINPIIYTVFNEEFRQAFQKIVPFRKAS
quantity.measured: Ki

Exercise: Item: O=C(Nc1ccc2cnn(S(=O)(=O)c3cccc4ccccc34)c2c1)C1CCCNC1 (racemic) Test system: 5-hydroxytryptamine receptor 1D (Homo sapiens, UniProt P28221) Read-out: Ki Value: ?
Solution: > 2 µM

----------
target: 5-hydroxytryptamine receptor 6 (Homo sapiens); assay: Antagonist activity at human cloned 5HT6 receptor expressed in human HeLa cells assessed as blockage of 5-HT-stimulated cAMP formation; type: functional, cell-based
quantity.measured: Imax (%)

• CN(C)CCC(=O)Nc1ccc2cnn(S(=O)(=O)c3cccc4ccccc34)c2c1 = 100
• CCN(CC)CCC(=O)Nc1ccc2cnn(S(=O)(=O)c3cccc4ccccc34)c2c1 = 100
• CNCCC(=O)Nc1ccc2cnn(S(=O)(=O)c3cccc4ccccc34)c2c1 = 100
• NCCC(=O)Nc1cccc2c1cnn2S(=O)(=O)c1cccc2ccccc12 = 100
• O=C(Nc1ccc2cnn(S(=O)(=O)c3cccc4ccccc34)c2c1)C1CCCNC1 (racemic) = 100
• O=C(CCN1CCCCC1)Nc1ccc2cnn(S(=O)(=O)c3cccc4ccccc34)c2c1 = 100
• O=C(Nc1ccc2cnn(S(=O)(=O)c3cccc4ccccc34)c2c1)C1CCNCC1 = 100

----------
molecular target: UniProt:P14416; experiment: Binding affinity to dopamine D2 receptor
Sequence (P14416 whole entry): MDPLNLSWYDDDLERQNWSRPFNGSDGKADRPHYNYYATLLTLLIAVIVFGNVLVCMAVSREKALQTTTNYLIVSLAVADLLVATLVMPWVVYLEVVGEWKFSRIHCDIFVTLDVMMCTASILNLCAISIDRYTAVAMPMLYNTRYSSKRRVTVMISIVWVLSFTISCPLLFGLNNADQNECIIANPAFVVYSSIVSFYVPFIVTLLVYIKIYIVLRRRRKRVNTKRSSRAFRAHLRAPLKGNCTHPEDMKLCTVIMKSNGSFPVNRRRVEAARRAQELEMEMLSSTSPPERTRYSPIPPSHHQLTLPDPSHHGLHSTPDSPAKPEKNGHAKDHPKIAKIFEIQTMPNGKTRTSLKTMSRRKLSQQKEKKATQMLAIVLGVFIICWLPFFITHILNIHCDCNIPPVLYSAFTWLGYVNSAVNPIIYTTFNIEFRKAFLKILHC
pKi: −log10 of the molar value.
quantity.measured: pKi

The following compounds have reported results that may help.
• O=C(Nc1ccc2cnn(S(=O)(=O)c3cccc4ccccc34)c2c1)C1CCCNC1 (racemic) = < 5.70
• NCCC(=O)Nc1cccc2c1cnn2S(=O)(=O)c1cccc2ccccc12 = < 5.70

Here's the next entry for you.
Exercise: Which pKi value belongs to O=C(Nc1ccc2cnn(S(=O)(=O)c3cccc4ccccc34)c2c1)C1CCNCC1 ?
Solution: < 5.70

----------
biological target: 5-hydroxytryptamine receptor 6 (Homo sapiens, UniProt P50406); experiment: Antagonist activity at human cloned 5HT6 receptor expressed in human HeLa cells assessed as blockage of 5-HT-stimulated cAMP formation
Sequence (P50406 whole entry): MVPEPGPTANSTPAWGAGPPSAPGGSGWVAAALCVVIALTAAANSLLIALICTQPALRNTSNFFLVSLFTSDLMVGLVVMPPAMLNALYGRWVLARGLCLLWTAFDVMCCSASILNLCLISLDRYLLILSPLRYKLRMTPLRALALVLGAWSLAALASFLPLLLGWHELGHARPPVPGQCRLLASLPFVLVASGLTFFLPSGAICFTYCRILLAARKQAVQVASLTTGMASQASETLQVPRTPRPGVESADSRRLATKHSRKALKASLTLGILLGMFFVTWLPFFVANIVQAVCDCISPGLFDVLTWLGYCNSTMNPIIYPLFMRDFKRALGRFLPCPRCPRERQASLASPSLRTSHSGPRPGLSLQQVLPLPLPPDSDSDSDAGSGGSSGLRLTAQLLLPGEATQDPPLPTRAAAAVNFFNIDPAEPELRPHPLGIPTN
quantity.measured: IC50 (nM)

Previously resolved entries follow.
- NCCC(=O)Nc1cccc2c1cnn2S(=O)(=O)c1cccc2ccccc12: 11
- O=C(Nc1ccc2cnn(S(=O)(=O)c3cccc4ccccc34)c2c1)C1CCCNC1 (racemic): 10

[1] CCN(CC)CCC(=O)Nc1ccc2cnn(S(=O)(=O)c3cccc4ccccc34)c2c1
[2] O=C(CCN1CCCCC1)Nc1ccc2cnn(S(=O)(=O)c3cccc4ccccc34)c2c1
[3] O=C(Nc1ccc2cnn(S(=O)(=O)c3cccc4ccccc34)c2c1)C1CCNCC1
[4] CN(C)CCC(=O)Nc1ccc2cnn(S(=O)(=O)c3cccc4ccccc34)c2c1
[5] CNCCC(=O)Nc1ccc2cnn(S(=O)(=O)c3cccc4ccccc34)c2c1
Exercise: Arrange the 5 compounds by rising IC50, starting with the smallest. Order the labels as requested and give them as your answer.
Solution: 3, 5, 4, 2, 1
